Assign inhibition to each entry below.
assay: blockers of polyQ-driven CASP3 activation – cell-based (AID 1583); settings: polyglutamine-induced caspase-3 activation, cell assay; stronger effect = higher value;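 tested at 10 µM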

Query :: Provide inhibition value for the following compound: O=C(O)c1ccc(S(=O)(=O)N(Cl)Cl)cc1
Result :: 18.5%

Query :: Give recorded inhibition. NCCCCCC(=O)O
Result :: -5.51%

Query :: Name the recorded inhibition of the compound listed here: NC(=O)c1ccccc1O
Result :: -13.1%

Query :: Give inhibition for the following compound: Oc1c(I)cc(I)c2cccnc12
Result :: 17.6%

Query :: In one line, give reported inhibition of the entry CCCCCCc1ccc(O)cc1O .
Result :: 8.69%

Query :: Tell us which inhibition value is on record for Oc1c(Cl)cc(Cl)cc1Sc1cc(Cl)cc(Cl)c1O
Result :: -9.02%

Query :: Report inhibition, nothing else, for this compound: O=C(COc1ccc(Cl)cc1)N1CCN(Cc2ccc3c(c2)OCO3)CC1
Result :: 60.9%

Query :: Tell me measured inhibition for CC(C)COCC(CN(Cc1ccccc1)c1ccccc1)N1CCCC1 (stereo not drawn) please.
Result :: 7.56%

Query :: Give the measured inhibition for CC1CCc2cc(F)cc3c(=O)c(C(=O)O)cn1c23 (stereo not drawn)
Result :: 4.46%

Query :: For the compound O=C1c2ccccc2C(=O)C1c1ccccc1 , report inhibition.
Result :: 16.8%

Query :: Tell me inhibition reported for CCOC(=O)[C@H](CCc1ccccc1)N[C@@H](C)C(=O)N1CCC[C@H]1C(=O)O
Result :: 21.1%

Query :: Provide measured inhibition value, entry: CCCCOC(=O)c1ccc(N)cc1
Result :: 10.7%

Query :: Please report inhibition for the following compound: NCCCC[C@H](N[C@@H](CCc1ccccc1)C(=O)O)C(=O)N1CCC[C@H]1C(=O)O
Result :: -0.18%

====

Kindly state viability decrease (inhibition) for each of the entries shown.
experiment: NPC library primary testing for decreased DLD-1 cell viability via CellTiter-Glo (AID 1117346); details: DLD-1 viability, CellTiter-Glo luminescence; at 20 µM (top of the series)
Give the value in % but do not write % after it.

Query :: Identify measured viability decrease (inhibition) associated with CCn1cc(C(=O)O)c(=O)c2cc(F)c(N3CCNCC3)nc21
Result :: -18.4

Query :: Give recorded viability decrease (inhibition). Cc1nccn1CC1CCc2c(c3ccccc3n2C)C1=O (stereo unspecified)
Result :: -8

Query :: Give me measured viability decrease (inhibition), please, for this compound: CC(=O)Nc1cccc(O)c1
Result :: 4.35

Query :: Recall and state the measured viability decrease (inhibition) for CN1CCN2c3ccccc3Cc3ccccc3C2C1 (stereo unspecified) .
Result :: 6.6

Query :: Give the reported viability decrease (inhibition) for this compound. Cc1oncc1C(=O)Nc1ccc(C(F)(F)F)cc1
Result :: 22

Query :: Report viability decrease (inhibition) for COc1cc(C(=O)NS(=O)(=O)c2ccccc2C)ccc1Cc1cn(C)c2ccc(NC(=O)OC3CCCC3)cc12
Result :: 98.2

Query :: Kindly indicate its recorded viability decrease (inhibition). Item: Cc1cc(C(C)(C)C)cc(C)c1CC1=NCCN1
Result :: 14.6

Query :: Identify measured viability decrease (inhibition) corresponding to CCOC(N)=O
Result :: -11.6

Query :: Consider the compound O=C(Nc1cccc(C2=NCCN2)c1)Nc1cccc(C2=NCCN2)c1 . State its measured viability decrease (inhibition).
Result :: 60.8

Query :: Retrieve viability decrease (inhibition) measured for CCN1CCN(C(=O)N[C@@H](C(=O)N[C@@H]2C(=O)N3C(C(=O)O)=C(CSc4nnnn4C)CS[C@H]23)c2ccc(O)cc2)C(=O)C1=O and print it.
Result :: 3.3

Query :: Read off the recorded viability decrease (inhibition) for CCOC(=O)C(C)(C)Oc1ccc(Cl)cc1
Result :: -40.7
